Every entry's value here was drawn from a melting point compilation (Tetko et al.; mined from patent text by program, amines drawn as free bases though some values may be those of a salt).

Consider the following compounds and their measured melting point readings.
quantityKind: melting point

COC(=O)c1cccc(-c2nc(-c3ccc(F)c(F)c3)cs2)c1 ... 147 to 148 °C
Cc1nc2cc(CCCN3C(=O)c4ccccc4C3=O)ccc2s1 ... 126 °C
O=C(Nc1cccc(F)c1F)c1ccc(-n2nc(C(F)(F)F)cc2C2CC2)c(F)c1 ... 175 to 180 °C
CC(=O)OCc1c(Br)cccc1N1Cc2cc(C(C)(C)C)ccc2C1=O ... 176 to 178 °C
CCOC(=O)c1nc(C(=O)OCC)nc(C(=O)OCC)n1 ... 169 to 170 °C
CN(CCCCCCO)c1ccc(C=Cc2ccc(S(C)(=O)=O)cc2)cc1 ... 113 to 115 °C
CCC(=O)Nc1ccc(C=CC(=O)O)cc1 ... 243 °C
COc1ccc(CCC(=O)C2C(=O)C=C(C)OC2=O)cc1O (stereo unspecified) ... 115 to 116 °C
CN1CCN(c2ccc3nc(N)c(C#N)c(NCc4ccccc4)c3c2)CC1 ... 176 °C
CCCCCCCc1ccc(C(=O)Oc2ccc(C(=O)O)c(Cl)c2)cc1 ... 108 °C
N#CCOc1cc2c(cc1C#Cc1ccccc1)NC(=O)CC(c1cccc(C#N)c1)=N2 ... 212 °C
Cc1oc(-c2ccccc2)nc1COc1ccc(CON=C(CCC(N)=O)c2ccccc2)cc1 ... 110 to 112 °C
CNc1nnc(-c2ccc3ncn(-c4ccc(OC(F)F)cc4)c3c2)o1 ... 195 to 196 °C
Cc1nc(-c2ccccc2)c(CC(C)C(=O)O)o1 (stereo unspecified) ... 109 to 110 °C
CC(=O)Oc1cn(Cc2c(F)cccc2F)c2sc(-c3ccc([N+](=O)[O-])cc3)c(C)c2c1=O ... 216 to 217 °C
CC1CC(C)OP(=O)(Cc2ccc(N)cc2)O1 (stereo unspecified) ... 160 to 161 °C
Cc1ccc(C(=O)Nc2c[nH]nc2C(=O)NCCOC(C)C)cn1 ... 168 to 169 °C
CCCc1c2c(c3oc(C(=O)OC)cc(=O)c3c1OC)CCCC2 ... 124 °C
CCNC(=O)N1CCc2cc(S(=O)(=O)n3cc(-c4ccccc4)[nH]c3=O)ccc21 ... 234 to 235 °C
CCc1cccc(CC)c1NC(=O)NCC1(c2ccccc2)CCCC1 ... 165 to 167 °C
COc1ccc(-c2n[nH]c3ccsc23)cc1 ... 143 to 144 °C

====

Recorded melting point values for a group of compounds are listed next.
quantityKind: melting point

CCCCCCCCCCCCCCOc1cccc(CC(=O)Nc2cccc(CO)c2)c1 ... 86 to 90 °C
O=C(NCc1ccco1)c1ccc(-c2ccc3nnn(Cc4ccc5ncccc5c4)c3n2)cc1F ... 144 to 147 °C
COC(=O)c1ccc(CCNCC(O)c2cc3ccccc3o2)cc1 (centres undefined) ... 117 to 119 °C
CC(C)(C)C(=O)OCCN(CCOC(=O)C(C)(C)C)C(=O)COC(=O)C(C)(C)C ... 51.4 °C
Cc1cccc(CCC(C)O)c1NC(=O)CC1c2ccccc2Oc2ccccc21 (centres undefined) ... 167 to 168 °C
CCCCNc1nc(N)nc2c1ncn2C1C=CC(CO)C1 (centres undefined) ... 116 to 118 °C
CN(C)c1ccc(-c2cc(F)c(F)cc2-c2ccc(S(N)(=O)=O)cc2)cc1Cl ... 193 to 194 °C
N#Cc1cccc(C(=O)N2CCN(c3ccc(NC(=O)c4ccccc4-c4ccc(C(F)(F)F)cc4)cc3)CC2)c1 ... 178 to 180 °C
CCc1cc(C(=O)c2ccccc2Cl)c(-n2c(C)nnc2CNC(=O)c2ccc(Cl)c(Cl)c2)s1 ... 151 to 152 °C
O=C(Nc1ccc(Oc2ccnc(N3CCCC(O)C3)n2)c2ccccc12)c1cc(F)cc(N2CCOCC2)c1 (centres undefined) ... 180 to 181 °C
CCOC(=O)Cc1[nH]c(C(=O)OC(C)(C)C)c(CCc2cccc(Cl)c2)c1C(=O)OCC ... 131 to 132 °C
CCNc1nc(Nc2ccccc2)ncc1C(=O)OCC ... 145 to 147 °C
O=C(CBr)c1cccn1S(=O)(=O)c1ccccc1 ... 89 to 91 °C
CC(C)(C)N(CC(=O)Nc1n[nH]c(=S)s1)C(=O)C(Cc1ccc(OCc2ccccc2)cc1)NC(=O)OCc1ccccc1 (centres undefined) ... 146 °C
CCCn1c(=O)n([C@@H]2CCN(CCCCN3C(=O)c4cc(Cl)ccc4S3(=O)=O)[C@@H](C#N)C2)c2ccccc21 (relative stereo) ... 159 to 160 °C
NC(=O)c1cc(C(O)CNCCCn2nnc3ccccc32)ccc1O (centres undefined) ... 154 to 155 °C
COc1ccc2c(n1)c(CC[N+](=O)[O-])c1n2Cc2ccccc2-1 ... 127 to 128 °C
COc1ccccc1OC(=O)CNC(=O)C(C)SC(=O)c1cccs1 (centres undefined) ... 90.5 to 92 °C
CCOC(=O)Nc1cnn(C)c1S(=O)(=O)NC(=S)NC(C)C ... 141 to 144 °C
Cn1c(-c2nnc(Cc3ccc(F)cc3)o2)c(O)c(=O)c2ccccc21 ... 222 °C
CCCCn1c(=O)c2[nH]cnc2n(CCCC)c1=S ... 137 °C
Cc1nc(CN)c2n1-c1ccc(Cl)cc1C(c1ccccc1)=NC2 ... 217 to 219 °C
O=C(O)c1cccc(NC(=O)C(CS)Cc2noc3ccccc23)c1 (centres undefined) ... 207 to 209 °C
Cc1nc(O)c2[nH]nc(C(C)C)c2n1 ... > 250 °C
C=CCc1c(N)ccc2c(=O)cc(C(=O)OCC)oc12 ... 142 to 143 °C
CCC12CCC3=C(CCc4cc(OC)ccc43)C1=CCC2=O (centres undefined) ... 77 to 80 °C
O=C(O)Cc1cc(C(=O)c2ccccc2)ccc1O ... 205 °C
CC(C)(C)NS(=O)(=O)c1cc2c(s1)S(=O)(=O)NCC2O (centres undefined) ... 144 to 147 °C
Cc1cc(Nc2ccnc(Nc3ccc(S(=O)(=O)N(C)C4CCCN(C)C4)cc3)n2)ccc1F (centres undefined) ... 188 °C
CCOC(=O)Cc1ccc(NC(=O)N2CCn3c(c(C(N)=O)c(C#N)c3C3CC3)C2)cc1 ... 263 to 264 °C
O/N=C(/CCN1CCN(c2ncccn2)CC1)c1ccccc1 ... 175 to 177 °C
Nc1nnc2c3c(c(N4CCOCC4)nn12)CCCC3 ... 260 to 262 °C
Cc1cc(-c2ccccc2)nc(N2CCN(c3ccc(O)cc3)CC2)c1C#N ... 207 °C
O=C(Cc1ccccc1C(=O)O)Nc1cccc(/C=C/c2nc(C3CCCCC3)cs2)c1 ... 210 to 211 °C
COc1cc(C=O)cc2c1OC1(CCCC1)C2 ... 54 °C
CCCCCCCCCCCCCCCCO[C@@H]1CCCO[C@H]1COP(=O)([O-])OCC[N+](C)(C)C (relative stereo) ... 85 to 92 °C
Cc1[nH]c(=O)c(C#N)cc1C(=O)n1ccnc1 ... 237 to 238 °C
Cc1cc(-c2ccc(Cl)cc2)nc2c(C#Cc3ccc(C(C)(C)O)cc3)cnn12 ... 112 to 115 °C
CCn1c(COC(N)=O)nc(C(C)C)c1Sc1cc(C#N)cc(C#N)c1 ... 174 to 175 °C

====

quantityKind: melting point

Cc1nc2scc(-c3ccccc3)n2c(=O)c1CCN1CCC(c2noc3cc(F)ccc23)CC1 ... 76 to 91 °C
N#CCC(=O)N[C@H]1CC[C@H](CCN2CCN(c3nccc4c3CCO4)CC2)CC1 ... 188 °C
COC(=O)c1cc(-c2ccc(C)cc2)n(Cc2ccc(Cl)c(Cl)c2)n1 ... 98.6 °C
Cc1cn2ccc3c(c2n1)NC(c1ccccc1)C(OC(=O)C(C)(C)C)C3=O (stereo not given) ... 145 to 147 °C
CCCCCCCCCCCCCCCCCNC(=O)OCCOCCOC(=O)N(Cc1ccccn1)C(=O)OCC ... 57 to 59 °C
O=C(O)c1ccc(NCCOc2ccc3ccccc3c2)cc1 ... 208 to 211 °C
O=C(NCC1(c2ccccc2)CCCC1)Nc1ccc(F)cc1F ... 160 to 161 °C
COc1ccc(CNC(=O)C2=C(C(=O)Nc3cc(OC4CCCC4)c(Cl)cc3F)CCCC2)cc1 ... 161 to 162 °C
O=c1[nH]c2ccccc2c(=O)n1C1CCCCC1 ... 236 to 238 °C
COc1ccc(N=C(N)N(C)C)c(N2CCOCC2)c1 ... 135 °C

====

quantityKind: melting point

COc1nc(C)nc(NC(=O)NS(=O)(=O)c2cccc3c2OS(=O)(=O)C(C)=C3)n1 ... 203 to 205 °C
CCN1CNC(=N[N+](=O)[O-])N(Cc2ccc(Cl)nc2)C1 ... 124 to 125 °C
CN(C)CCCOc1ccc2ccc(NC(=O)c3c(F)cccc3F)nc2n1 ... 190 °C
CC1CCC(Nc2ccccc2)c2nccc(=O)n21 (configuration not stated) ... 160 to 162 °C
COC(=O)c1cccc(N)c1N ... 62 to 63 °C
Cc1ccc(NS(=O)(=O)c2ccc(N)cc2)cc1 ... 174 to 176 °C
c1ccc(CN2CCC3(CC2)OCCO3)cc1 ... < 50 °C
O=C(O)C(O)CCCCCc1ccc(Cl)cc1 (configuration not stated) ... 78 to 81 °C
Cc1cccc(CCC(=O)Cn2ccnc2)c1 ... 160 to 162 °C
CC(C)(C)c1cc(OCCCc2nnn[nH]2)cc(C(C)(C)C)c1O ... 179 to 180 °C
CS(=O)(=O)c1ccc(-c2cnn(CC(F)(F)F)c(=O)c2NC2CCC2)cc1 ... 169 to 172 °C
CSC(=C[N+](=O)[O-])NCCSCc1ccc(CN(C)C)o1 ... 71 °C
CN(C)CCCNC(=O)c1cccc(-c2nnc(CSCCOc3ccccc3)o2)c1 ... 88 to 90 °C
Cc1ccc(OC2CCN(C(C=O)Nc3ccc4c(c3)OCC(=O)N4)CC2)cc1 (configuration not stated) ... 223 to 224 °C
COc1ccc2oc(=O)c(S(=O)(=O)Nc3ccc(Br)cc3)cc2c1 ... 166 to 168 °C
N#CN=C(Nc1ccc(C#N)cc1O)Nc1ccccc1Br ... 175 to 176 °C
NS(=O)(=O)c1ccc(NC(=O)NCCCCCCNC(=O)n2cc(F)c(=O)[nH]c2=O)cc1 ... 181 to 184 °C
Cc1cc(Cn2cccn2)cc2c1Cc1c(-c3ccsc3)n[nH]c1-2 ... 271 to 274 °C
COc1ccc(O)c(C(C)(O)c2ccccc2)c1 (configuration not stated) ... 114 °C
Cc1csc2[nH]c(=O)oc(=O)c12 ... 220 °C
COc1ccc(C(=O)Nc2ccccc2)cc1NS(=O)(=O)c1cc(Cl)cc(Cl)c1 ... 222 to 228 °C
CCOc1ccc(C(O)CN2CCOCC2)cc1-c1nc2c(C)cccc2c(=O)[nH]1 (configuration not stated) ... 145 to 147 °C
